B1: mRNA-splicing (parent)
chain: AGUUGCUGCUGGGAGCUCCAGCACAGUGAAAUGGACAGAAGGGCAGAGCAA

- Variants of: B1
- procedure summary: exon inclusion enrichment index; higher = more inclusion; WT1 exon 5 minigene, HEK293
Category | rule: reported exon inclusion enrichment index within range, see Low: < 0.03; Medium: ≥ 0.03 and < 0.2; High: ≥ 0.2

# mutation annotation, category
records = [
    ("G5A C6U U7A G8U C9A G33U G34C", "Low"),
    ("G5C C6A U7C G8A U10A A37G G38U", "Low"),
    ("G5C C6U G8C C9U U10C G38U A39C", "High"),
    ("A47G", "Medium"),
]

Ask: Categorize the following entry: C6A U7A C9A U10A G26C U27A
Result: High

Ask: Categorize the following entry: G33C
Result: Medium

Ask: Categorize the following entry: G5U G8U C9U G34U A35G
Result: Low

Ask: Categorize the following entry: C6A U7A C9A U10A G21A C22A
Result: High

Ask: Categorize the following entry: G5A C6G U7G C9A G33U G34U
Result: Low

Ask: Categorize the following entry: C6A U7A C9A U10A G33U G34U
Result: Medium

Ask: Categorize the following entry: G5C C6U G8C C9U U10C A39C
Result: High
